# protocol: BSK_SAg_Proliferation: Cell Proliferation Assessment in the BioMAP Diversity Plus: SAg Assay (AID 2283095);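 also: relative cell number as total protein by SRB absorbance in sub-confluent culture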
# study-conditions: primary human HUVEC with PBMC
The source made the active and inactive calls. The calls were made as follows: active = hit-call score of the fitted dose curve at least 0.9, where 1 is the maximum; inactive = score below 0.9.
outcome-measure: outcome

O=C(O)c1cccc(Oc2ccccc2)c1	inactive
O=C1OC(=O)C2C3C=CC(C3)C12 (stereo not drawn)	inactive
CNCc1ccc(NC(=O)c2c[nH]c3c2C(=O)CCC3)cc1	inactive

----------
# protocol: CCTE_Deisenroth_AIME_384WELL_CTox_Active: Cytotoxicity Assessment (CTOX) in CCTE's 384-well Estrogen Receptor Transactivation Assay with AIME metabolic competence (metabolism positive), Deisenroth Lab (AID 2284037);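 also: chemicals first conditioned 2 h by alginate-bound induced rat liver S9 before cells; activity means signal loss indicating cell death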
# Protocol: CCTE_Deisenroth_AIME_384WELL (AIME metabolism assay) is a cell-based, single-readout assay that uses VM7Luc4E2, a human mammary gland/breast cell line, with measurements taken at 24 hour after chemical dosing in a 384-well plate.CCTE_Deisenroth_AIME_384WELL_CTox_Active is one of four assay components measured or calculated from the CCTE_Deisenroth_AIME_384WELL assay. […] This assay endpoint, CCTE_Deisenroth_AIME_384WELL_CTox_Active, was analyzed with bidirectional fitting in the ERTA assay. […]
Records with an inconclusive call do not appear. The source made the active and inactive calls. The calls were made as follows: active = hit-call score of the fitted dose curve at least 0.9, where 1 is the maximum; inconclusive = response in the unintended direction; inactive = score below 0.9.
Parameter call: string, one of active, inactive

Example entries and their recorded answers appear below.
Cc1ccc(O)cc1	inactive
CCN(C(=O)c1cc(C)cc(OC[C@H](C)Nc2ccncc2)c1)C(C)C	inactive
COc1ccc2sc(C(=O)Nc3nnn[nH]3)c(OC(C)C)c2c1	active

Q: Call for entry CCCCCCc1ccc(O)cc1O :
A: active

Q: Can you check COCCOCCOCCOC next?
A: inactive

----------
# Read-out: Apoptosis regulator Bcl-2 (Homo sapiens) (UniProt P10415)
# Sequence (P10415 whole entry, looked up): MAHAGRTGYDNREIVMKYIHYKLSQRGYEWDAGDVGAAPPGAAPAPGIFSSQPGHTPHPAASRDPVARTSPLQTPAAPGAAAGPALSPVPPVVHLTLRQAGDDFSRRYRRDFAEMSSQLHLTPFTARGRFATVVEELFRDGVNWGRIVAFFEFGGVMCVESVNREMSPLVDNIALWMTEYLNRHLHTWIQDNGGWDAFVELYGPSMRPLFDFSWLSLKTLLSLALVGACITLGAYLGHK
# protocol: LTEA_HepaRG_BCL2: Life Technologies and Expression Analysis (LTEA) Assay for Bcl-2 gene using HepaRG (AID 2283475);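 also: BCL2 transcript by TaqMan qRT-PCR normalised to ACTB GAPDH and POLR2A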
# study-conditions: mRNA level, 48 h; actives raise or lower the signal
Calls of active or inactive are those of the source. How the source made its calls: active means hit-call score of the fitted dose curve at least 0.9, where 1 is the maximum; inactive means score below 0.9.
Parameter call: string, one of label 1 = active, label 0 = inactive

CNS(=O)(=O)c1cc(C(=O)N2CCC(CCN3C4CCC3CC(n3c(C)nc5ccccc53)C4)(c3cccc(F)c3)CC2)c(Cl)cc1F (stereo unspecified)	label 1
CC(=O)c1ccc2c(c1)[C@H](NC(=O)c1ccc(F)cc1)[C@@H](O)C(C)(C)O2	label 0
O=c1[nH]c2ccc(S(=O)CCN3CCC(Cc4ccc(F)cc4)CC3)cc2o1 (stereo unspecified)	label 0

Turning now to a further record.
Q: Call for entry COCCOc1cc2cc(C(=O)NC3CCN(C(C)C)CC3)n(CC(=O)Nc3ccc(Cl)cn3)c2cn1 :
A: label 0

----------
# Read-out: Vascular cell adhesion molecule 1 (VCAM1), VCAM1 (gene 7412)
# protocol: BSK_LPS_VCAM1: BioMAP Diversity Plus: LPS Assay for Vascular cell adhesion molecule 1 (VCAM1) Biomarker Activity (AID 2283086)
# study-conditions: primary human HUVEC with PBMC; actives raise or lower the signal
The source made the active and inactive calls. The calls were made as follows: active = hit-call score of the fitted dose curve at least 0.9, where 1 is the maximum; inactive = score below 0.9.
Parameter call: string, one of YES = active, NO = inactive

Example entries and their recorded answers appear below.
CC(C)=CCCC(C)CCO (stereo unspecified)	NO
CC(C)CC(C)(O)C#CC(C)(O)CC(C)C (stereo unspecified)	NO
Nc1ccc(Nc2ccccc2)cc1	YES
CCNc1ccccc1	NO

Q: Call for entry O=C1CCC(N2C(=O)c3ccccc3C2=O)C(=O)N1 (stereo unspecified) :
A: NO

Q: Can you check C=CCCCCCCCCC(=O)O next?
A: NO

Q: Can you check COc1ccc(/C=C/S(=O)(=O)NC(=O)c2ccc(C)cc2Cl)cc1 next?
A: NO

Q: Can you check O=c1n(CC2CO2)c(=O)n(CC2CO2)c(=O)n1CC1CO1 (stereo unspecified) next?
A: YES

Q: Can you check C=CC(=C)CCC=C(C)C next?
A: NO

Q: Can you check COC(=O)c1ccccc1O next?
A: NO

Q: Can you check O=C1CCCCCN1 next?
A: NO
